Measured values drawn from ChEMBL document CHEMBL5370549 for this set.

target: UniProtKB P08684; test: Inhibition of CYP3A4 (unknown origin) assessed as enzyme activity at 10 uM relative to control; format: ADME; set-up: scale not given: the % may be the effect or the level left; details: read-out: Activity
Sequence (P08684 whole entry): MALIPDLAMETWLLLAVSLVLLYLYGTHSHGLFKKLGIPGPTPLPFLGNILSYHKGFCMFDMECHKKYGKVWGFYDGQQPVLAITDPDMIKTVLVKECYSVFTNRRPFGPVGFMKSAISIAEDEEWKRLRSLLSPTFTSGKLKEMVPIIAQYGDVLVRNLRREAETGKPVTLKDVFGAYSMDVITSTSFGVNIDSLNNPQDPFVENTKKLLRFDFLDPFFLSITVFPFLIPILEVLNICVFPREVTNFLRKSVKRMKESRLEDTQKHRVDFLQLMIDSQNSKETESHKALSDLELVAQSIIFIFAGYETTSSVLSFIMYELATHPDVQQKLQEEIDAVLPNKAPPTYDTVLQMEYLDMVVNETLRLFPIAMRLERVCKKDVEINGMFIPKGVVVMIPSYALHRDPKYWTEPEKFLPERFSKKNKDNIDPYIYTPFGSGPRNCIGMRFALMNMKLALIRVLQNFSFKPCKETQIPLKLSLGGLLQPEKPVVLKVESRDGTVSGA
Field 'label' (enum: MET / NOT MET). Set to MET when activity at 10 µM is strictly under 50%; else NOT MET.

[
  {
    "compound": "COc1cccc(S(=O)(=O)/C=C/c2ccccc2C(F)(F)F)n1",
    "class_label": "MET"
  },
  {
    "compound": "COc1cccnc1[S+]([O-])/C=C/c1ccccc1C(F)(F)F (stereo unspecified)",
    "class_label": "MET"
  },
  {
    "compound": "COc1ncccc1S(=O)(=O)/C=C/c1ncccc1C(F)(F)F",
    "class_label": "NOT MET"
  },
  {
    "compound": "COc1ncccc1S(=O)(=O)/C=C/c1ccccc1C(F)(F)F",
    "class_label": "NOT MET"
  },
  {
    "compound": "COc1cccnc1S(=O)(=O)/C=C/c1ncccc1Cl",
    "class_label": "NOT MET"
  },
  {
    "compound": "COc1cccnc1/C=C/S(=O)(=O)c1ncccc1OC",
    "class_label": "NOT MET"
  },
  {
    "compound": "COc1ccc(S(=O)(=O)/C=C/c2ncccc2C(F)(F)F)nc1",
    "class_label": "NOT MET"
  },
  {
    "compound": "COc1ccc(S(=O)(=O)/C=C/c2ccccc2C(F)(F)F)nc1",
    "class_label": "NOT MET"
  },
  {
    "compound": "COc1ncccc1S(=O)(=O)/C=C/c1ncccc1Cl",
    "class_label": "NOT MET"
  },
  {
    "compound": "COc1ccnc(S(=O)(=O)/C=C/c2cccnc2Cl)c1",
    "class_label": "NOT MET"
  },
  {
    "compound": "COc1cccnc1S(=O)(=O)/C=C/c1ccccc1C(F)(F)F",
    "class_label": "NOT MET"
  },
  {
    "compound": "COc1ccc(S(=O)(=O)/C=C/c2ccccc2Cl)nc1",
    "class_label": "NOT MET"
  },
  {
    "compound": "COc1ccnc(S(=O)(=O)/C=C/c2ccccc2C(F)(F)F)c1",
    "class_label": "MET"
  },
  {
    "compound": "COc1ccnc(S(=O)(=O)/C=C/c2ncccc2C(F)(F)F)c1",
    "class_label": "NOT MET"
  },
  {
    "compound": "COc1ccnc(S(=O)(=O)/C=C/c2ccnc(Cl)c2)c1",
    "class_label": "NOT MET"
  },
  {
    "compound": "COc1ccnc(S(=O)(=O)/C=C/c2ncccc2Cl)c1",
    "class_label": "NOT MET"
  },
  {
    "compound": "COc1ccnc(S(=O)(=O)/C=C/c2ccc(Cl)cn2)c1",
    "class_label": "NOT MET"
  },
  {
    "compound": "COc1cccnc1S(=O)(=O)/C=C/c1ccccc1F",
    "class_label": "NOT MET"
  },
  {
    "compound": "COc1cccc(S(=O)(=O)/C=C/c2ncccc2Cl)n1",
    "class_label": "MET"
  },
  {
    "compound": "COc1ccncc1S(=O)(=O)/C=C/c1ncccc1Cl",
    "class_label": "MET"
  },
  {
    "compound": "COc1ccnc(S(=O)(=O)/C=C/c2ccc(Cl)cc2)c1",
    "class_label": "NOT MET"
  },
  {
    "compound": "COc1cccnc1C(=O)/C=C/c1ccccc1C(F)(F)F",
    "class_label": "MET"
  },
  {
    "compound": "COc1cccnc1S(=O)(=O)/C=C/c1ccccc1Cl",
    "class_label": "NOT MET"
  },
  {
    "compound": "COc1ccc([S+]([O-])/C=C/c2ccccc2C(F)(F)F)nc1 (stereo unspecified)",
    "class_label": "NOT MET"
  },
  {
    "compound": "COc1ccnc(S(=O)(=O)/C=C/c2ccc(Cl)nc2)c1",
    "class_label": "NOT MET"
  },
  {
    "compound": "COc1cccc(S(=O)(=O)/C=C/c2ncccc2C(F)(F)F)n1",
    "class_label": "MET"
  },
  {
    "compound": "COc1cccc(S(=O)(=O)/C=C/c2ccccc2Cl)n1",
    "class_label": "MET"
  },
  {
    "compound": "COc1ccc(S(=O)(=O)/C=C/c2ncccc2Cl)nc1",
    "class_label": "NOT MET"
  },
  {
    "compound": "COc1cccc([S+]([O-])/C=C/c2ccccc2C(F)(F)F)n1 (stereo unspecified)",
    "class_label": "MET"
  },
  {
    "compound": "COc1ccnc(S(=O)(=O)/C=C/c2cccc(Cl)c2)c1",
    "class_label": "MET"
  },
  {
    "compound": "COc1ccnc([S+]([O-])/C=C/c2ccccc2C(F)(F)F)c1 (stereo unspecified)",
    "class_label": "MET"
  },
  {
    "compound": "COc1cccnc1S(=O)(=O)/C=C/c1ncccc1C(F)(F)F",
    "class_label": "MET"
  },
  {
    "compound": "COc1ccnc(S(=O)(=O)/C=C/c2ccncc2Cl)c1",
    "class_label": "NOT MET"
  },
  {
    "compound": "COc1ccncc1S(=O)(=O)/C=C/c1ccccc1C(F)(F)F",
    "class_label": "MET"
  }
]
